B1: Pistol ribozyme (parent)
chain: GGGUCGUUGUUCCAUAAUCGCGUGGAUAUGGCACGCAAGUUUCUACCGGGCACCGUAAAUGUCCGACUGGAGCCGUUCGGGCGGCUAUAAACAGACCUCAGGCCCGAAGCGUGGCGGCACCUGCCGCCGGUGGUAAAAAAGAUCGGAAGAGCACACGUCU

Variants of: B1
protocol description: aptazyme ON/OFF ratio, guanine; higher = stronger switching; co-transcriptional cleavage with and without guanine
assay readout: aptazyme ON/OFF ratio
Reply: number alone, nothing else.

mutation | assay readout | value
U7G U8C G9C U11G C13U | aptazyme ON/OFF ratio | 1.25

aptazyme ON/OFF ratio reported for this variant U7G G9A U10C U11G C12A : 1.09

# variant U7G G9A U11A C12G C13A ; its aptazyme ON/OFF ratio = 1.08

Given item U7A G9C U10A U11G C12U C13G , the value recorded as its aptazyme ON/OFF ratio is 1.07

Short answer for U7C G9A U10G U11C C12G C13G : aptazyme ON/OFF ratio was 1.34

Please fill in: aptazyme ON/OFF ratio reported for U7C U10A U11C C12A C13A = 1.1

For record U8A G9A U10G U11C C12G C13G the listed aptazyme ON/OFF ratio is 1.14

Query U7C U8A G9A U10G U11G yields aptazyme ON/OFF ratio of 1.04

The variant U7C U8C G9U U10C U11C C13U showed aptazyme ON/OFF ratio equal to 1.04

Recorded aptazyme ON/OFF ratio (variant U8G G9U U10C U11C C13G ): 1.04

Measured aptazyme ON/OFF ratio, U8C G9A U11C C12G C13G : 1.26

Just so you know, measured aptazyme ON/OFF ratio for U7C U8A G9C U11C C13A came out at 1.14
